Target: PPARG/RXRA LBD heterodimer (Homo sapiens)
Construct: His-TEV-Q203-Y477; Uniprot ID P37231-2; made in house; host or cells: E. coli
Sequence (P37231 203-477 isoform P37231-2): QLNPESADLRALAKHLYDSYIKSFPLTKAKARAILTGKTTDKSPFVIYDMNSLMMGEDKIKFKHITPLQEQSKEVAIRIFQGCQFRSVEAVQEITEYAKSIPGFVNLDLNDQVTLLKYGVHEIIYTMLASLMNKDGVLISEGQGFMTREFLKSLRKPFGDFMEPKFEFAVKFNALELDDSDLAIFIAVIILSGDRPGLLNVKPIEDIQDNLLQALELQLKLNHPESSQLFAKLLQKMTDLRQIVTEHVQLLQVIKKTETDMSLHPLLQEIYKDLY
Sequence (P19793 228-462 partner limits assumed): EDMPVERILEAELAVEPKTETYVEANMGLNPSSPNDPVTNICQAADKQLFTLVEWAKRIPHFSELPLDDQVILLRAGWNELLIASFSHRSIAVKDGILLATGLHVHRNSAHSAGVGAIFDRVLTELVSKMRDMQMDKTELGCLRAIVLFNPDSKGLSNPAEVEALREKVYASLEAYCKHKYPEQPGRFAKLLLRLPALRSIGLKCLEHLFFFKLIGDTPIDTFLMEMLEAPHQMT
Assay: PPARγ-MED1 blockade assay (TR-FRET, biotinylated MED1 LxxLL peptide)
Type: biochemical
Conditions: WT PPARG LBD/WT RXRA LBD, 80 nM Rosiglitazone, 3 hours
As shown below, each of these molecules has a reported EC50 value.

The examples below pair each entry with its known result.
>>> obs_value("N#Cc1ccc(Cl)c(-c2cc(=O)c3c(F)c(-c4ccc(C(F)F)cc4)c(F)cc3[nH]2)c1")
"10 to 100 nM"
>>> obs_value("N#Cc1ccc(Cl)c(-c2cc(=O)c3c(F)c(F)ccc3[nH]2)c1")
"1000 to 10000 nM"
>>> obs_value("COc1c(F)cc2[nH]c(-c3cc(C#N)ccc3Cl)cc(=O)c2c1F")
"100 to 1000 nM"
>>> obs_value("N#Cc1ccc(Cl)c(-c2cc(=O)c3c(F)c(-c4ccc(C(F)(F)F)nc4)c(F)cc3[nH]2)c1")
"100 to 1000 nM"
>>> obs_value("N#Cc1ccc(Cl)c(-c2cc(=O)c3c(F)c(-c4cccc(C(=O)O)c4)c(F)cc3[nH]2)c1")
"100 to 1000 nM"
>>> obs_value("CS(=O)(=O)C1CN(c2c(F)cc3[nH]c(-c4cc(C#N)ccc4Cl)cc(=O)c3c2F)C1")
"1000 to 10000 nM"
>>> obs_value("N#Cc1ccc(Cl)c(-c2cc(=O)c3cc(F)c(F)cc3[nH]2)c1")
"1000 to 10000 nM"
>>> obs_value("CN1CCN(c2c(F)cc3[nH]c(-c4cc(C#N)ccc4Cl)cc(=O)c3c2F)CC1=O")
"1000 to 10000 nM"
>>> obs_value("Cc1ccc(-c2c(F)cc3[nH]c(-c4cc(C#N)ccc4Cl)cc(=O)c3c2F)nn1")
"1000 to 10000 nM"
>>> obs_value("N#Cc1ccc(Cl)c(-c2cc(=O)c3c(F)c(-c4cnn(C(F)F)c4)c(F)cc3[nH]2)c1")
"100 to 1000 nM"

Per the record, CO[C@@H]1CCN(c2c(F)cc3[nH]c(-c4cc(C#N)ccc4Cl)cc(=O)c3c2F)C1 has EC50 of 100 to 1000 nM
